Consider the following molecules and their measured GI50 readings.
system: CCRF-CEM; assay: NCI tumour cell line growth inhibition, 48 h
Activity calls are given as the source filed them. Rule as the data show it: active = GI50 up to about 1.1 µM and inactive = higher. Non-standard residues stand in square brackets, D forms with d. Residues, ends and D or L forms follow the SMILES beside them. ξ: configuration not given here. *: point of attachment. Cbz = O=C(OCc1ccccc1)*; ξK = NCCCCC(N)C(=O)O

{"columns": ["molecule", "GI50"],
 "data": [
  ["CC1(C2CCC3(C)OC3C2)CO1 (stereo unspecified)", "> 100 µM (inactive)"],
  ["COc1cc([C@@H]2c3cc4c(cc3[C@@H](c3c(O)cc(O)c5c3O[C@H](c3ccc(O)c(O)c3)[C@H](OC(=O)c3cc(O)c(O)c(O)c3)C5)[C@H]3COC(=O)[C@H]23)OCO4)cc(OC)c1O", "24.4 µM (inactive)"],
  ["Nc1nc(N)c2nc(-c3ccco3)cnc2n1", "43.1 µM (inactive)"],
  ["Nc1ccc2c(c1)C(=O)c1ccccc1-2", "71.6 µM (inactive)"],
  ["CCOC(=O)c1c(N2CCCC2)ncn(Cc2ccccc2)c1=S", "> 100 µM (inactive)"],
  ["CC(/C=C/c1ccccc1)=N\\NC(=S)N/N=C(C)/C=C/c1ccccc1", "6.38 µM (inactive)"],
  ["CCc1ccccc1NC(=O)CC1NC(=O)CS1 (stereo unspecified)", "> 100 µM (inactive)"],
  ["COC(=O)[C@H](Cc1ccccc1)NC(=O)N(CCN(CCC#N)C(=O)N[C@H](C(=O)OC)C(C)C)c1ccccc1", "33.7 µM (inactive)"],
  ["C=C=CC(NC(=O)c1ccccc1)(C(=O)O)C(F)(F)F (stereo unspecified)", "> 100 µM (inactive)"],
  ["C=CC(=O)NCCC(=O)OCn1cc(F)c(=O)[nH]c1=O", "16.7 µM (inactive)"],
  ["O=C(c1c(F)c(F)c(F)c(F)c1F)n1c(O)nc2ccccc21", "4.53 µM (inactive)"],
  ["COc1ccc(Nc2nc3c([nH]2)c(=O)n(C)c(=O)n3C)cc1", "> 10 µM (inactive)"],
  ["CC(C)N(CCn1c2c3ccccc3ccc2c2oc(=O)c3ccccc3c21)C(C)C", "> 100 µM (inactive)"],
  ["O=[N+]([O-])c1ccc(COc2cccc3cccnc23)cc1", "3.94 µM (inactive)"],
  ["CCCCCc1cc2cc3c(c(O)c2c(=O)[nH]1)C1(CCC3)C(=O)c2c(O)ccc(O)c2C1=O", "> 100 µM (inactive)"],
  ["O=C(O)[C@@H](NS(=O)(=O)c1ccc(F)cc1)c1ccccc1", "> 100 µM (inactive)"],
  ["COc1nc2ncc([C@@H](OC(C)=O)[C@@H](COC(C)=O)OC(C)=O)nc2c(=O)n1C", "58.1 µM (inactive)"],
  ["NCCCCC(NC(=O)OCc1ccccc1)C(=O)NCC(N)=O (stereo unspecified) (Cbz-[ξK]-Gly-NH2)", "> 100 µM (inactive)"],
  ["C=C1C(O)C[C@H](OC(C)=O)[C@]2(C)C1C(OC(C)=O)[C@]1(C(C)(C)O)CC(O)C(C)=C1[C@@H](OC(=O)c1ccccc1)C2OC(C)=O (stereo partly specified)", "> 10 µM (inactive)"],
  ["CCOC(=O)C(=O)NCCCN1CCOCC1", "> 100 µM (inactive)"],
  ["CC(C)(C)C(=O)CP(=O)(O)O", "> 100 µM (inactive)"]
]}
